Test: Apparent volume of distribution in Sprague-Dawley rat at 5 mg/kg, iv by LC-MS/MS analysis
Format: ADME, organism-based
Design: dose 5 mg/kg, route intravenous
Conditions: in vivo, read-out: Vz
QUANTITY: Vd (L/kg)

CC(=O)O[C@@]12CO[C@@H]1C[C@H](O)[C@@]1(C)C(=O)[C@H](O)C3=C(C)[C@@H](OC(=O)[C@H](O)[C@@H](NC(=O)OC(C)(C)C(F)(F)F)c4ccccc4)C[C@@](O)([C@@H](OC(=O)c4ccccc4)[C@H]21)C3(C)C = 18.1
CC(=O)O[C@@]12CO[C@@H]1C[C@H](O)[C@@]1(C)C(=O)[C@H](O)C3=C(C)[C@@H](OC(=O)[C@H](O)[C@@H](NC(=O)OC(C)(C)CF)c4ccc(F)cc4)C[C@@](O)([C@@H](OC(=O)c4ccccc4)[C@H]21)C3(C)C = 22

---

Assay: Mean residence time in Sprague-Dawley rat at 5 mg/kg, iv by LC-MS/MS analysis
Type: ADME, organism-based
Parameters: dose 5 mg/kg, route intravenous
Settings: in vivo
QUANTITY: MRT (h)

CC(=O)O[C@@]12CO[C@@H]1C[C@H](O)[C@@]1(C)C(=O)[C@H](O)C3=C(C)[C@@H](OC(=O)[C@H](O)[C@@H](NC(=O)OC(C)(C)C(F)(F)F)c4ccc(F)cc4)C[C@@](O)([C@@H](OC(=O)c4ccccc4)[C@H]21)C3(C)C = 2.78
CC(=O)O[C@@]12CO[C@@H]1C[C@H](O)[C@@]1(C)C(=O)[C@H](O)C3=C(C)[C@@H](OC(=O)[C@H](O)[C@@H](NC(=O)OC(C)(C)C(F)(F)F)c4ccccc4)C[C@@](O)([C@@H](OC(=O)c4cccc(F)c4)[C@H]21)C3(C)C = 2.13
CC(=O)O[C@@]12CO[C@@H]1C[C@H](O)[C@@]1(C)C(=O)[C@H](O)C3=C(C)[C@@H](OC(=O)[C@H](O)[C@@H](NC(=O)OC(C)(C)C(F)F)c4ccc(F)cc4)C[C@@](O)([C@@H](OC(=O)c4ccccc4)[C@H]21)C3(C)C = 4.28
CC(=O)O[C@@]12CO[C@@H]1C[C@H](O)[C@@]1(C)C(=O)[C@H](O)C3=C(C)[C@@H](OC(=O)[C@H](O)[C@@H](NC(=O)OC(C)(C)C(F)F)c4ccccc4)C[C@@](O)([C@@H](OC(=O)c4ccccc4)[C@H]21)C3(C)C = 2.76

---

Test: Total plasma clearance in Sprague-Dawley rat at 5 mg/kg, iv by LC-MS/MS analysis
Type: ADME, organism-based
Parameters: dose 5 mg/kg, route intravenous
# clearance annotations
QUANTITY: clearance (mL/min/kg)

CC(=O)O[C@@]12CO[C@@H]1C[C@H](O)[C@@]1(C)C(=O)[C@H](O)C3=C(C)[C@@H](OC(=O)[C@H](O)[C@@H](NC(=O)OC(C)(C)C(F)(F)F)c4ccccc4)C[C@@](O)([C@@H](OC(=O)c4ccccc4)[C@H]21)C3(C)C = 21
CC(=O)O[C@@]12CO[C@@H]1C[C@H](O)[C@@]1(C)C(=O)[C@H](O)C3=C(C)[C@@H](OC(=O)[C@H](O)[C@@H](NC(=O)OC(C)(C)C(F)F)c4ccccc4)C[C@@](O)([C@@H](OC(=O)c4cccc(F)c4)[C@H]21)C3(C)C = 42.5
CC(=O)O[C@@]12CO[C@@H]1C[C@H](O)[C@@]1(C)C(=O)[C@H](O)C3=C(C)[C@@H](OC(=O)[C@H](O)[C@@H](NC(=O)OC(C)(C)C(F)F)c4ccc(F)cc4)C[C@@](O)([C@@H](OC(=O)c4ccccc4)[C@H]21)C3(C)C = 25.2
CC(=O)O[C@@]12CO[C@@H]1C[C@H](O)[C@@]1(C)C(=O)[C@H](O)C3=C(C)[C@@H](OC(=O)[C@H](O)[C@@H](NC(=O)OC(C)(C)C)c4ccccc4)C[C@@](O)([C@@H](OC(=O)c4ccccc4)[C@H]21)C3(C)C.O.O.O = 125
CC(=O)O[C@@]12CO[C@@H]1C[C@H](O)[C@@]1(C)C(=O)[C@H](O)C3=C(C)[C@@H](OC(=O)[C@H](O)[C@@H](NC(=O)OC(C)(C)C(F)(F)F)c4ccccc4)C[C@@](O)([C@@H](OC(=O)c4cccc(F)c4)[C@H]21)C3(C)C = 21.3
CC(=O)O[C@@]12CO[C@@H]1C[C@H](O)[C@@]1(C)C(=O)[C@H](O)C3=C(C)[C@@H](OC(=O)[C@H](O)[C@@H](NC(=O)OC(C)(C)CF)c4ccccc4)C[C@@](O)([C@@H](OC(=O)c4cccc(F)c4)[C@H]21)C3(C)C = 37.7
CC(=O)O[C@@]12CO[C@@H]1C[C@H](O)[C@@]1(C)C(=O)[C@H](O)C3=C(C)[C@@H](OC(=O)[C@H](O)[C@@H](NC(=O)OC(C)(C)C(F)F)c4ccccc4)C[C@@](O)([C@@H](OC(=O)c4ccccc4)[C@H]21)C3(C)C = 29.8
CC(=O)O[C@@]12CO[C@@H]1C[C@H](O)[C@@]1(C)C(=O)[C@H](O)C3=C(C)[C@@H](OC(=O)[C@H](O)[C@@H](NC(=O)OC(C)(C)CF)c4ccccc4)C[C@@](O)([C@@H](OC(=O)c4ccccc4)[C@H]21)C3(C)C = 84.8
CC(=O)O[C@@]12CO[C@@H]1C[C@H](O)[C@@]1(C)C(=O)[C@H](O)C3=C(C)[C@@H](OC(=O)[C@H](O)[C@@H](NC(=O)OC(C)(C)CF)c4ccc(F)cc4)C[C@@](O)([C@@H](OC(=O)c4ccccc4)[C@H]21)C3(C)C = 50.3
CC(=O)O[C@@]12CO[C@@H]1C[C@H](O)[C@@]1(C)C(=O)[C@H](O)C3=C(C)[C@@H](OC(=O)[C@H](O)[C@@H](NC(=O)OC(C)(C)C(F)(F)F)c4ccc(F)cc4)C[C@@](O)([C@@H](OC(=O)c4ccccc4)[C@H]21)C3(C)C = 21.3
